# Experimental system: SF9 affinity purified rat FPT (Rattus norvegicus, UniProt Q02293+Q04631)
# Construct: made in house; host or cells: Sf9 insect cells
# Assay: PFT inhibitory activity
# Assay type: biochemical
# Run conditions: HEPES buffer pH 7.4 containing 5 mM potassium phosphate; average of two tests; read-out: IC50 (μM) Hepes/5 mM KPO4^−2
IC50: recorded values

For orientation, consider the following solved cases.
Compound: COC(=O)CCN(CC(=O)NCC(C)(C)c1ccccc1)C(=O)[C@H](Cc1c[nH]cn1)NC(=O)OCc1ccccc1
IC50: 0.018 µM
//
Compound: COCCN(CC(=O)NCC(C)(C)c1ccccc1)C(=O)C(Cc1cnc[nH]1)NC(=O)OCc1ccccc1 (stereo not shown)
IC50: 0.019 µM
//
Compound: C/C=C/CN(CC(=O)NCC(C)(C)c1ccccc1)C(=O)[C@H](Cc1c[nH]cn1)NC(=O)OCc1ccccc1
IC50: 0.011 µM
//
Compound: C[C@@H](c1ccccc1)N(CC(=O)NCC(C)(C)c1ccccc1)C(=O)[C@H](Cc1c[nH]cn1)NC(=O)OCc1ccccc1
IC50: 0.001 µM
//
Compound: C[C@H](c1ccccc1)N(CC(=O)NCC(C)(C)c1ccccc1)C(=O)[C@H](Cc1c[nH]cn1)NC(=O)OCc1ccccc1
IC50: 0.065 µM

The reported value for CC(C)(CNC(=O)CN(CCC(=O)O)C(=O)[C@H](Cc1c[nH]cn1)NC(=O)OCc1ccccc1)c1ccccc1 in terms of IC50 is < 0.001 µM

The reported value for CC(C)(CNC(=O)CN(CCN)C(=O)C(Cc1cnc[nH]1)NC(=O)OCc1ccccc1)c1ccccc1 (stereo not shown) in terms of IC50 is 0.072 µM

The reported value for CC(C)(CNC(=O)CN(CCN1CCOCC1)C(=O)[C@H](Cc1c[nH]cn1)NC(=O)OCc1ccccc1)c1ccccc1 in terms of IC50 is 0.016 µM

The reported value for CC(C)OC(=O)CCN(CC(=O)NCC(C)(C)c1ccccc1)C(=O)[C@H](Cc1c[nH]cn1)NC(=O)OCc1ccccc1 in terms of IC50 is 0.034 µM

The reported value for CC(C)(CNC(=O)CN(CC(C)(C)c1ccccc1)C(=O)[C@H](Cc1c[nH]cn1)NC(=O)OCc1ccccc1)c1ccccc1 in terms of IC50 is 0.001 µM

###

# Experimental system: SF9 affinity purified rat FPT (Rattus norvegicus, UniProt Q02293+Q04631)
# Construct: made in house; host or cells: Sf9 insect cells
# Assay: PFT inhibitory activity
# Format: biochemical
# Run conditions: HEPES buffer pH 7.4 containing 5 mM potassium phosphate; average of two tests; read-out: IC50 (μM) Hepes/5 mM KPO4^−2
Readout name: IC50 (µM)
Enter your answer as a number in µM; do not include the unit.

For orientation, consider the following solved cases.
Compound: CN(C)C(=O)CCN(CC(=O)NCC(C)(C)c1ccccc1)C(=O)C(Cc1cnc[nH]1)NC(=O)OCc1ccccc1 (stereo not shown)
IC50 [µM]: 0.007
//
Compound: CNCCN(CC(=O)NCC(C)(C)c1ccccc1)C(=O)[C@H](Cc1c[nH]cn1)NC(=O)OCc1ccccc1
IC50 [µM]: 0.92
//
Compound: CSCCN(CC(=O)NCC(C)(C)c1ccccc1)C(=O)C(Cc1cnc[nH]1)NC(=O)OCc1ccccc1 (stereo not shown)
IC50 [µM]: 0.006

Kindly consider the entry below.
Sample CC(OC(=O)NC(Cc1c[nH]cn1)C(=O)N(CC(=O)NCC(C)(C)c1ccccc1)Cc1ccc(OCc2ccccc2)cc1)c1ccccc1 (stereo not shown) , system: SF9 affinity purified rat FPT (Rattus norvegicus, UniProt Q02293+Q04631). Its IC50 is 0.004
